// data source = PubChem BioAssay AID1259427

target: Aedes aegypti neuropeptide Y-like receptor 7 (NPYLR7); test: agonists of mosquito NPYLR7 receptor, confirmation, cell-based, Aedes aegypti, hit validation, mosquito biting behavior (AID 1259427); details: HEK293T NPYLR7/Galpha15/GCaMP6s, calcium fluorescence;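 further: potency of agonists that activate the receptor and raise the calcium signal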
Calls of active or inactive are those of the source.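 How the source made its calls: active means EC50 at or below a set limit, with no effect in the paired counter-screen assay; inactive means the rest.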
Allowed answers: active, inactive

COc1ccc2c(c1)OCC(C=C(C#N)S(=O)(=O)c1ccc(Br)cc1)=C2 | inactive
NC(=S)N/N=c1\oc2cc(O)ccc2cc1-c1nc2ccccc2[nH]1 | inactive
CC1CCCCC1OCCNC(=O)C1(c2ccc(F)cc2)CCC1 (configuration not stated) | inactive
CCn1c(O)c(C=Nc2c(C#N)c(C)c(C)n2C2CCCCC2)c(=O)n(CC)c1=S | inactive
CN(Cc1ccccc1)C1=CC2=CC(=C(C#N)C#N)CCC2CC1 (configuration not stated) | active

Hi, do you know how N#CC1C(=N)Oc2cc(N)ccc2C1c1c(Cl)cccc1Cl (configuration not stated) came out in this test?
inactive

Kindly provide the recorded test outcome for the following compound: "CCCCN(CC(=O)Nc1c(-c2ccccc2)c(C)nn1-c1ccccc1C)S(=O)(=O)c1ccc(F)cc1"
inactive

How was COc1ccc(CC2c3cc(OC)c(OC)cc3CC[N+]2(C)CCC(=O)OCCCCCOC(=O)CC[N+]2(C)CCc3cc(OC)c(OC)cc3C2Cc2ccc(OC)c(OC)c2)cc1OC (configuration not stated) classified in this test?
active

What did the test return for "CC1=NCCc2c1[nH]c1cc(O)ccc21" ?
inactive

What did the test return for "CCOc1ccc(/C=C2N=C(/C=C/c3ccccc3)OC/2=O)cc1" ?
inactive
